Compiled pIC50 measurements on Histone lysine demethylase PHF8 (Homo sapiens, UniProt Q9UPP1) taken from the literature.
pIC50: −log10 of the molar value.

                           compound  quantity  recorded_result
0  CN(C)CCCCCNCc1cc(/C=N/C2CC2)ccn1     pIC50           < 5.60
1   O=C(O)c1ccnc(CN2CCC[C@@H]2CO)c1     pIC50           > 6.60

Q. Report its pIC50 with Histone lysine demethylase PHF8 (Homo sapiens, UniProt Q9UPP1) as the test system: COc1ccc(CCCN(CC(=O)N2CCCCC2)Cc2cc(C(=O)O)ccn2)cc1
A. 5.60 to 6.60

Q. For Histone lysine demethylase PHF8 (Homo sapiens, UniProt Q9UPP1), give pIC50 of the listed compound: CC(C)C[C@H](NCc1cc(C(=O)O)ccn1)C(=O)NCc1ccccc1NC(=O)C1CC1C (stereo partly shown)
A. 5.60 to 6.60

Q. Supply pIC50 measured with Histone lysine demethylase PHF8 (Homo sapiens, UniProt Q9UPP1) for N#CCNCc1ccnc(CNCCCCN(Cc2ccccc2)C2CC2)c1 .
A. < 5.60

Q. Fill in pIC50 for CC(C)=CCCC(C)CCN1CCC(NC(=O)CNCc2cc(C(=O)O)ccn2)C1 (stereo not shown) tested with Histone lysine demethylase PHF8 (Homo sapiens, UniProt Q9UPP1).
A. 6.00 to 7.00

Q. Jot down pIC50 (Histone lysine demethylase PHF8 (Homo sapiens, UniProt Q9UPP1)) of O=C(O)c1ccnc(CN2CCCC[C@H]2CC(=O)N2CCCCC2)c1 .
A. < 5.60

Q. System Histone lysine demethylase PHF8 (Homo sapiens, UniProt Q9UPP1). Read-out pIC50. Item O=C(O)c1ccnc(CNCc2cccnc2)c1 . Report value.
A. > 6.60

Q. System Histone lysine demethylase PHF8 (Homo sapiens, UniProt Q9UPP1). Read-out pIC50. Item CCN(CCN(C)C)C(=O)CNCc1cc(CN)ccn1 . Report value.
A. 5.60 to 6.60

Q. Under Histone lysine demethylase PHF8 (Homo sapiens, UniProt Q9UPP1), report pIC50 for O=C(O)c1cc(CNCC(=O)N2CCCCC2)ncn1
A. 5.60 to 6.60
